Each recorded value in this set is attributed to paper PMC3443378.

target_desc: the molecule itself
assay_details: AUC

>  <protein>
PrfA^S71L (natural protein, Listeria monocytogenes) NAQAEEFKKYLETNGIKPKQFHKKELIFNQWDPQEYCIFLYDGITKLTSISENGTIMNLQYYKGAFVIMLGFIDTETSVGYYNLEVISEQATAYVIKINELKELLSKNLTHFFYVFQTLQKQVSYSLAKFNDFSINGKLGSICGQLLILTYVYGKETPDGIKITLDNLTMQELGYSSGIAHSSAVSRIISKLKQEKVIVYKNSCFYVQNLDYLKRYAPKLDEWFYLACPATWGKLN

>  <% peak integration (%)>
83.3

$$$$
